These data points were gathered from PubChem BioAssay AID624167.

# Test system: Rat fibroblasts (CREF)
# TEST PROTOCOL: Peg3 promoter luciferase inhibitors, potency, dose response, cell-based, HeLa, CREF/GAPDH counter-screen panel (AID 624167)
# COND: CREF/GAPDH counter-screens, mean of runs
Active and inactive are the calls of the source.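 The calls were made as follows: active = mean IC50 for reducing PEG3 promoter reporter signal at or below a set limit, with IC50 above the limit in both counter screens; inactive = the rest, including counter screen hits.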
Tick one outcome: true (1) = active, false (0) = inactive

# example entries with known answers
CCOc1ccc(NC(=O)c2ccccn2)cc1 = true (1)
CCCCC(=O)NC(c1ccc(OC)cc1)c1ccc2cccnc2c1O (configuration not stated) = false (0)
Cc1ccsc1/C=N/Nc1cccc(C(=O)O)c1 = false (0)
CN(C)c1ccc(C=c2c3ccccc3n3c2cc(-c2ccccc2)[n+]3C)cc1 = true (1)
O=c1c2ccccc2sc2nc(CCl)nn12 = false (0)
COc1ccc2c(c1)sc1nc(-c3ccccc3)cn12 = true (1)
COc1ccc(-n2c(O)c(/C=N/Nc3nc(C)cc(C)n3)c3ccccc3c2=O)cc1OC = false (0)
Cc1ccc(-c2nc(-c3ccccn3)no2)cc1Cl = true (1)
Cc1ccc2nc(-c3ccc4c(c3)OCCO4)cn2c1 = true (1)
CS(=O)(=O)c1ccc(-c2cn3cc(C(=O)O)ccc3n2)cc1 = true (1)

# ---- query molecule ----
IN: Please let me know the test result on file for "CCOc1ccc(NC(=O)Nc2cccc(C(=O)O)c2)cc1" .
OUT: true (1)
